assay: Inhibition of dihydrofolate reductase DHFR in Pneumocystis carinii.
pIC50: −log10 of the molar value.
The threshold is inclusive: pIC50 of exactly 6 counts as Criterion met; values below receive Criterion not met.

Some solved entries appear below for comparison.
CCc1nc(N)nc(N)c1-c1ccc(Cl)c(/N=N/N(CCOC(C)=O)Cc2ccccc2C)c1 Criterion not met
CCc1nc(N)nc(N)c1-c1ccc(Cl)c(/N=N/N(CCOC(C)=O)Cc2cccc(Cl)c2)c1 Criterion met
CCc1nc(N)nc(N)c1-c1ccc(Cl)c(/N=N/N(CCOC(C)=O)Cc2ccccc2Cl)c1 Criterion not met
CCc1nc(N)nc(N)c1-c1ccc(Cl)c(/N=N/N(CCOC(C)=O)Cc2cccc(C)c2)c1 Criterion not met
CCc1nc(N)nc(N)c1-c1ccc(Cl)c(/N=N/N(CCO)Cc2ccccc2)c1 Criterion met
CCc1nc(N)nc(N)c1-c1ccc(Cl)c(/N=N/N(CCOC(C)=O)Cc2ccc(C)cc2)c1 Criterion not met

# ---- query compound ----
Does the compound `CCc1nc(N)nc(N)c1-c1ccc(Cl)c(/N=N/N(CCOC(C)=O)Cc2ccncc2)c1` have recorded pIC50 that is 6 or more?
Criterion not met
